Tested on: HOP-62
test-protocol: NCI tumour cell line growth inhibition, 48 h
Activity calls are given as the source filed them. Cut-off read from the data, not from the text of the source: active = GI50 up to about 1.1 µM and inactive = higher.
Result category, one only: active, inactive

These solved cases illustrate the format of a correct answer.
COc1cc2cc[n+](C)c(Cc3ccc(Oc4cc(Cc5c6cc(OC)c(OC)cc6cc[n+]5C)ccc4OC)cc3)c2cc1OC
inactive
CC(=O)NNC1=NN(C(C)=O)C2(S1)C(=O)Nc1ccccc12 (configuration not stated)
inactive
O=C1/C(=C\c2ccc([N+](=O)[O-])cc2)N(S(=O)(=O)c2ccccc2)c2ncccc21
inactive
CN1C/C(=C\c2ccccc2[N+](=O)[O-])C(=O)/C(=C/c2ccccc2[N+](=O)[O-])C1
inactive

query: Per the assay record, what outcome was assigned to `CNC(=O)CCNC(=O)CCC(=O)OC` ?
result: inactive

query: Also, `NNc1nnc(CCCCCCCCc2nnc(NN)n2N)n1N` please.
result: inactive

query: Also, `O=C(NC(Nc1ccc(F)c(Cl)c1)(C(F)(F)F)C(F)(F)F)C(C(F)(F)F)C(F)(F)F` please.
result: inactive

query: Also, `Cc1cc(C)c2c(O)cc(-c3ccc4ccccc4c3)nc2n1` please.
result: inactive

query: Also, `COc1cc([N+](=O)[O-])ccc1NC(=O)c1cccc([N+](=O)[O-])c1O` please.
result: inactive

query: Also, `CCCCCCCCCCCCc1ccsc1-c1ccc(-c2ccc(-c3sc(-c4cc(CCCCCCCCCCCC)c(-c5ccc(-c6ccc(-c7sccc7CCCCCCCCCCCC)s6)s5)s4)cc3CCCCCCCCCCCC)s2)s1` please.
result: inactive
